molecular target: human DGKα (Homo sapiens (Human)); experiment: biochemical; details: detergent/lipid micelle substrate; read-out: DGKα IC50
Sequence (P23743 other isoform, or with tags, fused parts or gaps): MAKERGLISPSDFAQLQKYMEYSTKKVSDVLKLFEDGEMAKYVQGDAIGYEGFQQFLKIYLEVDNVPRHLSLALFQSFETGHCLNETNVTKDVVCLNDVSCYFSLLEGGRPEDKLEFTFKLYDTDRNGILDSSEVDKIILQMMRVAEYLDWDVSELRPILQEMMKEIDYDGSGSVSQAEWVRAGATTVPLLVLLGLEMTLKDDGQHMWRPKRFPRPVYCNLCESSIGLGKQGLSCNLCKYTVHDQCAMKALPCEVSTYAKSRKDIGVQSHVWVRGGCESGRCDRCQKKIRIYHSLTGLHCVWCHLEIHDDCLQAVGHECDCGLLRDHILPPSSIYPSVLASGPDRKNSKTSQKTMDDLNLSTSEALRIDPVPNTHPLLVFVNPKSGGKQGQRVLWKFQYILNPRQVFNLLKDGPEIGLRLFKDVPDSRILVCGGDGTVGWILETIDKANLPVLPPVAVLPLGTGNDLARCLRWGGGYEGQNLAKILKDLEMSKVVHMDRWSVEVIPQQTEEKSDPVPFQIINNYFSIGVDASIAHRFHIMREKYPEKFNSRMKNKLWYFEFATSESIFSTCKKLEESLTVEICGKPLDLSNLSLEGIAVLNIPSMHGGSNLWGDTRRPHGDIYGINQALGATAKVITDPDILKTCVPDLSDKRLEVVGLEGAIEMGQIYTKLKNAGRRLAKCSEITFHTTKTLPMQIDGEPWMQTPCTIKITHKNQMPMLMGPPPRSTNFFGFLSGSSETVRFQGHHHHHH
readout type: pIC50
Conceptually, pIC50 converts a concentration in mol/L into minus its log10.

Give the reported pIC50 for Cn1c(=O)c(C#N)c(N2CCN(Cc3cc(F)ccc3F)CC2)c2nc(Cl)ccc21 [Example 318] (system: human DGKα (Homo sapiens (Human))). 6.07

Give the reported pIC50 for Cn1c(=O)c(C#N)c(N2CCN(Cc3cc(Br)ccc3O)CC2)c2nc(Br)ccc21 [Example 282] (system: human DGKα (Homo sapiens (Human))). 6.66

Give the reported pIC50 for CN(C)C(=O)c1ccc2c(n1)c(N1CCN(C(c3ccc(F)cc3)c3ccc(F)cc3)CC1)c(C#N)c(=O)n2C [Example 231] (system: human DGKα (Homo sapiens (Human))). 3.77

Give the reported pIC50 for Cn1c(=O)c(C#N)c(N2CCN(Cc3ccc(F)c(O)c3)CC2)c2nc(Cl)ccc21 [Example 348] (system: human DGKα (Homo sapiens (Human))). 6.66

Give the reported pIC50 for Cn1c(=O)c(C#N)c(N2CCN(Cc3cccc4c3NCC4)CC2)c2nc(Cl)ccc21 [Example 216] (system: human DGKα (Homo sapiens (Human))). 5.85

Give the reported pIC50 for Cn1c(=O)c(C#N)c(N2CCN(Cc3ccc(Cl)cc3)CC2)c2nc(Cl)ccc21 [Example 417] (system: human DGKα (Homo sapiens (Human))). 6.60

Give the reported pIC50 for Cn1c(=O)c(C#N)c(N2CCN(CC(O)c3ccc(F)cc3)CC2)c2nc(Br)ccc21 (racemic) [Example 28] (system: human DGKα (Homo sapiens (Human))). 5.89

Give the reported pIC50 for Cc1ccc2c(n1)c(N1CCN(Cc3cccc(F)c3O)CC1)c(C#N)c(=O)n2C [Example 329] (system: human DGKα (Homo sapiens (Human))). 6.25

Give the reported pIC50 for Cn1c(=O)c(C#N)c(N2CCN(Cc3c(F)cccc3F)CC2)c2nc(Cl)ccc21 [Example 422] (system: human DGKα (Homo sapiens (Human))). 5.85

Give the reported pIC50 for Cn1c(=O)c(C#N)c(N2CCN(Cc3c(O)cccc3Br)CC2)c2nc(Br)ccc21 [Example 271] (system: human DGKα (Homo sapiens (Human))). 5.96

Give the reported pIC50 for Cn1c(=O)c(C#N)c(N2CCN(Cc3cc(F)ccc3O)CC2)c2nc(Cl)ccc21 [Example 312] (system: human DGKα (Homo sapiens (Human))). 6.92

Give the reported pIC50 for COc1c(F)cccc1CN1CCN(c2c(C#N)c(=O)n(C)c3ccc(Cl)nc23)CC1 [Example 274] (system: human DGKα (Homo sapiens (Human))). 6.17
